Tested on: MDA-MB-468 breast
Experimental Protocol: NCI-60 one-dose screen, 48 h (100 = growth as untreated, 0 = no growth, -100 = all killed)
Conditions Used: 10 µM unless noted
About 83,000 compounds went through this panel and 20% of them were active in at least one assay; those are over-represented in the sample as a whole.
Use 40% as the dividing line for growth, with the line itself on the 1 side and lower values as -1.

Data request: Does the compound CCOc1ccc2nc(NC(=O)c3ccc(C(F)(F)F)cc3)sc2c1 have recorded growth that is 40% or more?
Data returned: 1

Data request: Does the compound FC(F)(F)c1[nH]ncc1-c1nc2c(N3CCCCC3)cc3[nH]ncc3c2c2c1CCCC2 have recorded growth that is 40% or more?
Data returned: -1

Data request: Does the compound COc1cc(NCCN(CC(C)C)CC(C)C)c2ncc(C)cc2c1 have recorded growth that is 40% or more?
Data returned: -1

Data request: Does the compound CCN(CC)c1ccc2nc3c4ccccc4c(=NC(=O)c4ccccc4-c4c5ccc(N(CC)CC)cc5[o+]c5cc(N(CC)CC)ccc45)cc-3oc2c1 have recorded growth that is 40% or more?
Data returned: -1

Data request: Does the compound N#CCCOc1ccccc1 have recorded growth that is 40% or more?
Data returned: 1

Data request: Does the compound COC(=O)c1ccc2[nH]c(O)c(C(=Nc3ccc(N(C)C(=O)CN4CCN(C)CC4)cc3)c3cccc(OC)c3)c2c1 have recorded growth that is 40% or more?
Data returned: -1

Data request: Does the compound COc1cc2c(cc1I)-c1c(cc(OC)c(OC)c1OC)CC[C@@H]2NC(C)=O have recorded growth that is 40% or more?
Data returned: -1

Data request: Does the compound Cc1ccc(-c2cc3nc(C(Cl)Cl)nc(-c4ccccc4)n3n2)cc1 have recorded growth that is 40% or more?
Data returned: -1

Data request: Does the compound NS(=O)(=O)c1ccc(N=Nc2c(O)n(Cc3ccccc3)c3ccc(Cl)cc23)cc1 have recorded growth that is 40% or more?
Data returned: 1

Data request: Does the compound CCOc1ccc(-c2cc(C3(S(=O)(=O)c4ccc(C)cc4)CC=CC3)on2)cc1 have recorded growth that is 40% or more?
Data returned: 1

meta.source: PubChem BioAssay (NCI)
